Reference source: patent US20240360114A1

system: HT-1080 cells; experiment: HT-1080 cell viability assay (ferroptosis induced by RSL3, Cell Titer-Glo); type: cell-based; settings: Homo sapiens, HT-1080, 20 h, ferroptosis inducer RSL3, 20 hours, ferroptosis inhibitory activity, Table 2
pEC50: −log10 of the molar value.
Consider the following molecules; for each one, report its pEC50.

Use the examples below as a reference point.
>>> measuredresult("OC1CCCCC1Nc1ccc(N2CCC(C(F)(F)F)CC2)cc1 (stereo not shown)")
"7.00 to 10.00"
>>> measuredresult("NC1CCC(Nc2ccc(Oc3ccccc3)cc2)CC1 (stereo not shown)")
"7.00 to 10.00"
>>> measuredresult("CC1(C)CCC(c2ccc(NC3CC(CN)C3)cc2)CC1 (stereo not shown)")
"7.00 to 10.00"

# per-item lookup of pEC50; items listed below
1. CC(C)C1CCN(c2cnc(NC3CCC(N)CC3)nc2)CC1 (stereo not shown)
2. [2H]C1([2H])CC(N)CC([2H])([2H])C1([2H])Nc1ccc(C(C)(C)C)cc1 (stereo not shown)
3. Cc1cc(NC2CC3(CC(N)C3)C2)cnc1N1C[C@H](C)O[C@@H](C)C1 (stereo in doubt)
4. CC1CN(c2ccc(NC3CC4(CC(N)C4)C3)cc2F)CC(C)O1 (stereo not shown)
5. NC1CCC(Nc2cc(F)c(N3CCC(C(F)(F)F)CC3)c(F)c2)CC1 (stereo not shown) [Compound 54A]
6. CC1CN(c2ccc(NC3CCC(N)CC3)cc2)CC(C)O1 (stereo not shown)

["5.00 to 6.00", "7.00 to 10.00", "6.00 to 7.00", "6.00 to 7.00", "7.00 to 10.00", "6.00 to 7.00"]

# per-item lookup of pEC50; items listed below
1. O=C1NC[C@H](C(=O)NC2CCC(Nc3ccc(C4CCCCC4)cc3)CC2)N1 (stereo partly shown)
2. Cc1cc(N2CCCCC2)ccc1NC1C[C@H]2CC(N)C[C@H]2C1 (stereo partly shown)

["6.00 to 7.00", "7.00 to 10.00"]
